- measurement-conditions: 390 K; 101.33 kPa; Liquid; Laser flash apparatus
endpoint: thermal conductivity (W/m/K)

# molecule, thermal conductivity, W/m/K
data = [
    ("CCCCCCCCCC(=O)OCC(COC(=O)CCCCCCCCC)OC(=O)CCCCCCCCC [1,2,3-propanetriyl tridecanoate]", 0.147),
    ("CCCCCCCC(=O)OCC(COC(=O)CCCCCCC)OC(=O)CCCCCCC [1,2,3-propanetriol trioctanoate]", 0.145),
    ("CCCCCCCCCCCCCC(=O)OCC(COC(=O)CCCCCCCCCCCCC)OC(=O)CCCCCCCCCCCCC [1,2,3-propanetriyl tri(tetradecanoate)]", 0.167),
    ("CCCCCCCCCCCC(=O)OCC(COC(=O)CCCCCCCCCCC)OC(=O)CCCCCCCCCCC [1,2,3-propanetriyl tridodecanoate]", 0.156),
]
